Provenance of the data: patent US5519057A

# Tested on: afferent nerves of the feet of female Rhesus monkeys
# Assay details: Analgesia test: threshold voltage for stimulus response on electrical stimulation of the feet of female Rhesus monkeys
# Type: in vivo, Rhesus monkeys (macaca mulatta)
# Setup conditions: 3,0 h after oral administration; ibuprofen forms 50 mg/kg, acetylsalicylic acid 100 mg/kg
Observation type: Median percentage change in the threshold voltage

Known Median percentage change in the threshold voltage results, listed for orientation:
{"Compound": "CC(C)Cc1ccc([C@H](C)C(=O)O)cc1 [(S)-(+)-ibuprofen]", "Obs value": "+42,3%"}
{"Compound": "CC(C)Cc1ccc([C@@H](C)C(=O)O)cc1 [(R)-(-)-ibuprofen]", "Obs value": "-7,0%"}
{"Compound": "CC(=O)Oc1ccccc1C(=O)O", "Obs value": "+72,8%"}

// switching to the query compound
I have this compound here, CC(C)Cc1ccc(C(C)C(=O)O)cc1 (racemic) [(±)-ibuprofen, 2-(4-Isobutylphenyl)-propionic acid] , and I need its recorded Median percentage change in the threshold voltage. +18,1%
